- Tested on: guinea pig tracheal smooth muscle
- assay_text: Effect on an isolated preparation of tracheal muscle in guinea pig (relaxation)
- Design: species or system Hartley guinea pig
- condition_summary: Cavia porcellus; hydrochlorides, cumulative application; Tyrode solution 37°C; read-out: concentration required for relaxing 50% of the maximum relaxation effect (IC50)
Please provide measured IC50 for the entries that follow.
State the answer as a number, implicitly in µM.

Enquiry: Specify measured IC50 for C[C@H](NCCc1ccc(O)cc1)[C@H](O)c1ccc(O)cc1 (relative stereo) [(±)-isomer] .
Return: 0.136

Enquiry: Specify measured IC50 for C[C@@H](NCCc1ccc(O)cc1)[C@@H](O)c1ccc(O)cc1 [(+)-isomer] .
Return: 5.61

* * *

Please provide measured pIC50 for the entries that follow.
- Test system: isolated rat myometrium
- assay_text: Effect on an isolated rat myometrium preparation (oxytocin-induced contraction)
- Set-up: species or system female virgin Wistar rat
- condition_summary: Rattus norvegicus; oxytocin 2×10^-2 U/ml; hydrochlorides applied; Tyrode solution 36°C; read-out: concentration required for suppressing 50% of the contraction of an isolated myometrium caused by oxytocin (IC50)
Would you please state pIC50, meaning minus log10 of the concentration in mol/L, as a bare number?

Enquiry: Specify measured pIC50 for C[C@@H](NCCc1ccc(O)cc1)[C@@H](O)c1ccc(O)cc1 [(+)-isomer] .
Return: 4.26

Enquiry: Specify measured pIC50 for C[C@H](NCCc1ccc(O)cc1)[C@H](O)c1ccc(O)cc1 (relative stereo) [(±)-isomer] .
Return: 5.45

* * *

- Tested on: guinea pig tracheal smooth muscle
- assay_text: Effect on an isolated preparation of tracheal muscle in guinea pig (relaxation)
- Parameters: species or system Hartley guinea pig
- condition_summary: Cavia porcellus, read-out: concentration required for relaxing 50% of the maximum relaxation effect (IC50)
measure_name: pIC50
Would you please state pIC50, meaning minus log10 of the concentration in mol/L, as a bare number?

Enquiry: Specify measured pIC50 for C[C@H](NCCc1ccc(O)cc1)[C@H](O)c1ccc(O)cc1.Cl [(-)-isomer, hydrochloride] .
Return: 7.22

* * *

Please provide measured LD50 for the entries that follow.
- assay_text: Acute toxicity test in mouse (i.v.)
- Assay type: in vivo, male ICR mice
- condition_summary: mouse, in vivo, iv, mice; confidence limits given; read-out: LD50 (Confidence limit)
State the answer as a number, implicitly in mg/kg.

Enquiry: Specify measured LD50 for C[C@@H](NCCc1ccc(O)cc1)[C@@H](O)c1ccc(O)cc1 [(+)-isomer] .
Return: 70

Enquiry: Specify measured LD50 for C[C@H](NCCc1ccc(O)cc1)[C@H](O)c1ccc(O)cc1.Cl [(-)-isomer] .
Return: 64

Enquiry: Specify measured LD50 for C[C@H](NCCc1ccc(O)cc1)[C@H](O)c1ccc(O)cc1 (relative stereo) [(±)-isomer] .
Return: 83

* * *

- assay_text: Acute toxicity test in mouse (i.v.)
- Type: in vivo, male ICR mice
- condition_summary: mouse, in vivo, iv, acute toxicity; range stated for all three types; read-out: 50% lethal dose (LD50)
measure_name: LD50

Enquiry: Specify measured LD50 for C[C@H](NCCc1ccc(O)cc1)[C@H](O)c1ccc(O)cc1 (relative stereo) [(±)-isomer] .
Return: 50 to 100 mg/kg

Enquiry: Specify measured LD50 for C[C@H](NCCc1ccc(O)cc1)[C@H](O)c1ccc(O)cc1.Cl [(-)-isomer] .
Return: 50 to 100 mg/kg

Enquiry: Specify measured LD50 for C[C@@H](NCCc1ccc(O)cc1)[C@@H](O)c1ccc(O)cc1 [(+)-isomer] .
Return: 50 to 100 mg/kg
